Source listed as ChEMBL document CHEMBL1201862.

System: IGROV-1
ASSAY OVERVIEW: NCI tumour cell line growth inhibition, 48 h
The source made the active and inactive calls. Rule as the data show it: active = GI50 up to about 1.1 µM and inactive = higher.
Field: GI50. Provide a value for each of the compounds that follow.

Given the entry "O=C1Sc2ccccc2/C1=N/Nc1ccccc1[N+](=O)[O-]" , report its measured GI50.
> 100 µM (inactive)

Proceed to COC1C(OC(=O)/C=C/C=C/C=C/C=C/C(=O)O)CCC2(CO2)C1C1(C)OC1CC=C(C)C (configuration not stated)
46.3 µM (inactive)

Proceed to "Cc1cc2c(C)n(Cc3ccc(Cl)cc3Cl)nc2c(C#N)c1C"
41 µM (inactive)

Proceed to CCN1CN(c2ccccc2)C2(CCN(CC(CC3OCCO3)c3ccc(F)cc3)CC2)C1=O (configuration not stated)
6.75 µM (inactive)

Proceed to O=C(C(=O)N1CC2C=CC1CC2)c1c[nH]c2ccccc12 (configuration not stated)
> 100 µM (inactive)

Proceed to "CN(N=O)C(=O)Nc1ccc(C(=O)O)cc1"
> 100 µM (inactive)

Proceed to Cc1ccc(NC(=O)C(=O)C2C(=O)C3=C(CC2(C)C)NC2C=CC=CC2S3)c(C)c1 (configuration not stated)
49.3 µM (inactive)

Proceed to "O/N=N\c1nc(-c2ccccn2)nc2ccccc12"
17 µM (inactive)

Proceed to "Cc1ccc(-n2c(C)n[nH]c2=O)cc1"
> 100 µM (inactive)

Proceed to "CCOC(=O)C1=C(Nc2ccc(Br)cc2)OCC1=O"
> 100 µM (inactive)

Proceed to "Cc1cn(CC2(CO)CCC2)c(=O)[nH]c1=O"
> 100 µM (inactive)

Proceed to "CN(c1ccc(Cl)cc1)S(=O)(=O)c1ccccc1"
> 100 µM (inactive)
